All values here come from patent US11878970B2.

biological target: PI3K-α (PIK3CA) wild-type (WT), p110α/p85α complex (Homo sapiens); construct: Recombinant, catalytically active human full length PIK3KA Wild-type and H1047R mutant; 6×His (N); purchased EMD Millipore Sigma 14-602M; experiment: PI3K-alpha kinase (PIK3CA) biochemical activity, ADP-Glo, wild-type; settings: Soy PI lipid substrate
Sequence (P42336 whole entry): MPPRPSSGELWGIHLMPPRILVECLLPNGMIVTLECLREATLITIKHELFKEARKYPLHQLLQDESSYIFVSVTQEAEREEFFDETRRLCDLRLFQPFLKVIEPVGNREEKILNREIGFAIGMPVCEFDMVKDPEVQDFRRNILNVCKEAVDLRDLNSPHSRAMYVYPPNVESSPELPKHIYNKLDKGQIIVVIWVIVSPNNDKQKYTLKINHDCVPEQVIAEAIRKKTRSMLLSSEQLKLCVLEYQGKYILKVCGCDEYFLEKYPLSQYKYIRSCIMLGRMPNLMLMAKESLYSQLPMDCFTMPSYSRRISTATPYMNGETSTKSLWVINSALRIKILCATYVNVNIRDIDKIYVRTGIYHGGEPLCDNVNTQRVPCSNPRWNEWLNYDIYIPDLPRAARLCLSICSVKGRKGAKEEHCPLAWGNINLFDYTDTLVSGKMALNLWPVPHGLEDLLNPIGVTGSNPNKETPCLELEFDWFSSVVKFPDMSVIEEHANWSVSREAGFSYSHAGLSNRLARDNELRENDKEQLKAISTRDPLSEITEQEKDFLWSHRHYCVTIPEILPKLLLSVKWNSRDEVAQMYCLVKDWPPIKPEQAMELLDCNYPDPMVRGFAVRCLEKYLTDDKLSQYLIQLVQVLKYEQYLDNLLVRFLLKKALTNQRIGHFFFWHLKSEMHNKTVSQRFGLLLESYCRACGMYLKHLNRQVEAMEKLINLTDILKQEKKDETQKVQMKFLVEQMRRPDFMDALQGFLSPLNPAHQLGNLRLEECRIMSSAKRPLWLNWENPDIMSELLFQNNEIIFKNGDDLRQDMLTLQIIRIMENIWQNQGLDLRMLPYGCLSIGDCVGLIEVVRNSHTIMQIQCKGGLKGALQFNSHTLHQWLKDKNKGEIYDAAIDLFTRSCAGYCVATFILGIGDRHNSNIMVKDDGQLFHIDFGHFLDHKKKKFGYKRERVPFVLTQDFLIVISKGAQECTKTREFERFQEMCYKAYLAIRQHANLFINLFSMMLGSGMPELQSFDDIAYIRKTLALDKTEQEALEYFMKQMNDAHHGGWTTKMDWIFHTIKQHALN
Sequence (P27986 whole entry partner): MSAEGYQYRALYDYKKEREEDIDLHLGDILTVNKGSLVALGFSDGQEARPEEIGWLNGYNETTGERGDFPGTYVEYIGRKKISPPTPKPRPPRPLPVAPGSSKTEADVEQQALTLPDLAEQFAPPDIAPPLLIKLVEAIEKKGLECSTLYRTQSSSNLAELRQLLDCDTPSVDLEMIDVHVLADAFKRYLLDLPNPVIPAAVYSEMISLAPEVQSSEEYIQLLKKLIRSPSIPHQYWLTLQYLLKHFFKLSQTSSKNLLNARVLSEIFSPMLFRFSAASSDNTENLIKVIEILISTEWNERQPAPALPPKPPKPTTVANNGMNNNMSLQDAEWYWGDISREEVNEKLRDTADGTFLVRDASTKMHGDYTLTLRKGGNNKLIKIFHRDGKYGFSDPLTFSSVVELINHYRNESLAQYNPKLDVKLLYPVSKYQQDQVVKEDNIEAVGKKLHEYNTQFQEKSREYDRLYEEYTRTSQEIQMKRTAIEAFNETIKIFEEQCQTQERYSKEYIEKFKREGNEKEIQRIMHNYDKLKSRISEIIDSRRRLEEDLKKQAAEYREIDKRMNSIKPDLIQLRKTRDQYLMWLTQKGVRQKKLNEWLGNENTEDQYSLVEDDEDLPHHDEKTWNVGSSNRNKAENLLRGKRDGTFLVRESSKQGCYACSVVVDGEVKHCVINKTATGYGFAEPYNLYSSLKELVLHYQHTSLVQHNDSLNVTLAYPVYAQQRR
ASSAY_ENDPOINT: IC50

MOLECULE: Cc1cc(C(C)Nc2ccccc2C(=O)O)c2oc(-n3ncc4c(C)cccc43)cc(=O)c2c1 (single isomer, unassigned) [Example 88]
RESULT: 500 to 1000 nM
--
MOLECULE: Cc1cc(C(C)Nc2ccccc2C(=O)O)c2oc(-c3ccc4nncn4c3)cc(=O)c2c1 (single isomer, unassigned) [Example 76]
RESULT: > 10000 nM
--
MOLECULE: Cc1cc([C@@H](C)Nc2ccc(C(F)(F)F)cc2C(=O)O)c2oc(-c3ccc4nn(C)cc4c3)c(C)c(=O)c2c1 [Example 235]
RESULT: 1000 to 5000 nM
--
MOLECULE: Cc1cc([C@@H](C)Nc2cccc(F)c2C(=O)O)c2oc(-c3ccc4nc(C)cn4c3)cc(=O)c2c1 [Example 228]
RESULT: 500 to 1000 nM
--
MOLECULE: Cc1cc(C(C)Nc2ccc(Cl)c(F)c2C(=O)O)c2oc(-c3ccc4nc(C)cn4c3)cc(=O)c2c1 (single isomer, unassigned) [Example 183]
RESULT: 500 to 1000 nM

Looking up Cc1cc([C@@H](C)Nc2cccc(F)c2C(=O)O)c2oc(-c3nn(C)c4ccccc34)c(C)c(=O)c2c1 [Example 230] , I see its IC50 listed as < 500 nM

// field: IC50; key: Cc1cc(C(C)Nc2ccccc2C(=O)O)c2oc(-c3cc4ccccc4[nH]3)c(C)c(=O)c2c1 (single isomer, unassigned) [Example 52] ; value = 500 to 1000 nM

Record summary for CC(Nc1ccccc1C(=O)O)c1cc(C(F)(F)F)cc2c(=O)cc(-c3ccc4c(cnn4C)c3)oc12 (single isomer, unassigned) [Example 109] : reported IC50 = 1000 to 5000 nM
